Test system: Saccharomyces cerevisiae;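 also: PSI is a weighted mean of sequencing reads over stability bins, variants kept only with over 10 reads, mCherry proximal and sfGFP distal, peptide attached via GGGS linker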
method summary: protein stability index of tFT-peptide fusion (C-terminal peptide) (PSI (0-1 scale)); higher = more stable (slower turnover)
condition details: genetic background: das1 deletion; temperature: 30 C
Provide the recorded protein stability index for the entries that follow.
Answers are plain numbers.

GGGWGVFVVLWW :: 0.216
FMVYRIHSSAVM :: 0.251
VTMTPSLCFSYS :: 0.388
PPGSPPGSLRPT :: 0.664
KFRGMTLRNKVC :: 0.657
IVRSLFGYLCVV :: 0.524
VVFLFVEAVVGV :: 0.0387
RWVFAGVGLFVG :: 0.605

Would you mind giving protein stability index for every sequence in the list below?
1. FRCRFLLPFYSV
2. PTYSCSIKIQAH
3. VLYWTGTLFVSL
4. AGAFRIVWWALR
5. FRLCQRPVFLLS
6. VCNSIPLTPPPA
7. VFLYVYAVWFLV
8. TVRVWPRNLWFS

stdout:
0.632
0.407
0.218
0.578
0.542
0.618
0.198
0.639
